We begin with a simple list: items and their reported IC50.
test system: Influenza B virus; experiment: In vitro antiviral activity was evaluated in a plaque reduction assay against influenza B; assay type: functional, organism-based
Give the value, in units of µg/mL, as a plain number.

CC(=O)N[C@H]1[C@H]([C@H](O)[C@H](O)CO)OC(C(=O)O)=C[C@@H]1N : 0.02
CCCN(C)C(=O)[C@@H]1OC(C(=O)O)=C[C@H](N)[C@H]1NC(C)=O : 16
CCCNC(=O)[C@@H]1OC(C(=O)O)=C[C@H](NC(=N)N)[C@H]1NC(C)=O : 3.8
CCCNC(=O)[C@@H]1OC(C(=O)O)=C[C@H](N)[C@H]1NC(C)=O : 44

According to the records, this compound CCCN(C)C(=O)[C@@H]1OC(C(=O)O)=C[C@H](NC(=N)N)[C@H]1NC(C)=O displays IC50 of 2.2
